experimental_system: T1, CEACAM1 (Sino Biological) (human, UniProt P13688 35-428, limits assumed)
T1 construct: may be the same as CEACAM1-HIS; also called hCEACAM1; biotinylated soluble CEACAM1
T1 sequence: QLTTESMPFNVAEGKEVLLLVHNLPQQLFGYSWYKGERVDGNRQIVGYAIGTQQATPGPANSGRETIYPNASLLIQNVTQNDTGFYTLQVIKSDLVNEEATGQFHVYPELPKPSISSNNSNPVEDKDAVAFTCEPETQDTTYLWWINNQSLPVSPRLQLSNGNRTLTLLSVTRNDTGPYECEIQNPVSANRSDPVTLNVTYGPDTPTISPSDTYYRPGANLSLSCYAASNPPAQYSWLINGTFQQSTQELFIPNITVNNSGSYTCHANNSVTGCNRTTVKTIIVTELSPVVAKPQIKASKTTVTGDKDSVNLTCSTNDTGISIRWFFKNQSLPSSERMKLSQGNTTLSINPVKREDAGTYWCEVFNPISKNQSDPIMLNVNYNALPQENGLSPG
assay_procedure: SPR single-cycle
quantity_measured: Kd
In your response, the unit should come after the numeric value.

For the binder He13/L2 (antibody, IgG4, V domains shown, IgG4 S241P, kappa) VH: EVQLLESGGGLVQPGGSLRLSCAASGFSFSDYYLYWVRQAPGKGLEWVATISVGGGQTSYADSVKGRFTISRDNSKNTLYLQMNSLRAEDTAMYYCTRGLYYGPSWLAYWGQGTLVTVSS VL: DIVMTQSPDSLAVSLGERATINCKSSQSLLNSANQKNYLAWYQQKPGQPPKLLIYFASTRESGVPDRFSGSGSGTDFTLTISSLQAEDVAVYYCQSHYPFPYTFGGGTKVEIK , report Kd.
98 nM

For the binder He9/L17 (antibody, IgG4, V domains shown, IgG4 S241P, kappa; also called He9 / 17) VH: EVQLLESGGGLVQPGGSLRLSCAASGFSFSDYYLYWVRQAPGKGLEWVATISVGGGQTSYADSVKGRFTISRDNSKNTLYLQMNSLRAEDTAMYYCARAMYYGPAWFAYWGQGTLVTVSS VL: DIVMTQSPDSLAVSLGERATINCKSSQSLLNSANQKNYLAWYQQKPGQPPKLLIYFASTRESGVPDRFSGSGSGTDFTLTISSLQAEDVAVYYCQSHYPYPYTFGGGTKVEIK , report Kd.
33 nM

For the binder He1/L17 (antibody, IgG4, V domains shown, IgG4 S241P, kappa) VH: EVQLLESGGGLVQPGGSLRLSCAASGFSFSDYYLYWVRQAPGKGLEWVATISVGGGQTSYADSVKGRFTISRDNSKNTLYLQMNSLRAEDTAMYYCTRGLYYGPSWFAYWGQGTLVTVSS VL: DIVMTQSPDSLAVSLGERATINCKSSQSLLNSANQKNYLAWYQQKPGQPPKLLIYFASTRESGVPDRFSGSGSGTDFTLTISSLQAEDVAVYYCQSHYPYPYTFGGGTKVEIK , report Kd.
374 nM
